Exercise: state measured pEC50 for each of the compounds provided.
target: DAT (Rattus norvegicus); experiment: Inhibition of [3H]dopamine reuptake at DAT in rat caudate synaptosomes; conditions: read-out: EC50, DAT uptake inhibition
Sequence (P23977 whole entry): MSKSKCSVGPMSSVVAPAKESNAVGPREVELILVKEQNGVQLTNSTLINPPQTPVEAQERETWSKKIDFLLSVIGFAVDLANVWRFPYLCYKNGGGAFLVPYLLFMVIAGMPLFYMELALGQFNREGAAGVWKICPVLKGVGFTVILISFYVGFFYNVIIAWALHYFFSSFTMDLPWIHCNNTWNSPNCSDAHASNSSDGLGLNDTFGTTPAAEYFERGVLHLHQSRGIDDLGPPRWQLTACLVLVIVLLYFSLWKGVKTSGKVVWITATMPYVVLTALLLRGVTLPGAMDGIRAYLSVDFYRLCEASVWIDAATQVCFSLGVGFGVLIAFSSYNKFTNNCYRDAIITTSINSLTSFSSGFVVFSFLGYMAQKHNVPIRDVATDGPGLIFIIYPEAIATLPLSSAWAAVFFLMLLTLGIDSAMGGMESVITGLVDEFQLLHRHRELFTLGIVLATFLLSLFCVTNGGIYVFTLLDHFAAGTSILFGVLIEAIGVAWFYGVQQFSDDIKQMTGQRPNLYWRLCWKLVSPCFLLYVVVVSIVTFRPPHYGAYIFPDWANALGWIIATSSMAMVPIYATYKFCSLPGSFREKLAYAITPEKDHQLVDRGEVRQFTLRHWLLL
In textbook form, pEC50 equals minus log to base ten of the concentration in mol/L.

Task item: Reported pEC50 for CCC[C@@H](C(=O)c1ccc2c(c1)OCO2)N1CCCC1.Cl [S(+)MDPV (3S)] : what is it?
Reply: 8.67

Task item: Note, next up: CCC[C@H](C(=O)c1ccc2c(c1)OCO2)N1CCCC1.Cl [R(−)MDPV (3R)]
Reply: 6.42

Task item: Note, next up: CCCC(C(=O)c1ccc2c(c1)OCO2)N1CCCC1 (racemic) [(±)MDPV (3), methylenedioxypyrovalerone]
Reply: 8.31

Where these numbers come from: paper PMC5349769
